# Tested on: SNB-75
# Experiment notes: NCI tumour cell line growth inhibition, 48 h
The source made the active and inactive calls. No stated cut-off is given here; in the data, active = GI50 up to about 1.1 µM and inactive = higher.
Assay endpoint: GI50

Compound | GI50
O=C1OC(C2Cc3ccc4ccccc4c3C2=O)c2ccccc21 (stereo not drawn) | 32.3 µM (inactive)
COc1ccc(-c2cc(O)c3cc4c(cc3n2)OCO4)c(OC)c1OC | 27.7 µM (inactive)
C=C1CC[C@H]2C(=O)OC(c3ccoc3)C[C@]2(C)C/C=C\C=C/1C(=O)OC (stereo partly drawn) | 24 µM (inactive)

Form field GI50, entry CCCC(O)C(NC(=O)CCl)C(=O)O (stereo not drawn) : > 100 µM (inactive)

# compound COC(=O)C1(C)NCCc2c1[nH]c1ccccc21 (stereo not drawn) ; its GI50 = 16.8 µM (inactive)

Consider `O=C1OC(c2ccccc2)=N/C1=C\c1ccc([N+](=O)[O-])cc1` . Its measured GI50 is 22.9 µM (inactive)

Quick note, GI50 for `CCCc1ccc(NCc2cc(OC)c(OC)c(OC)c2)cc1` landed at 29 µM (inactive)

---

# System: BT-549
# Experiment notes: NCI tumour cell line growth inhibition, 48 h
Activity calls are given as the source filed them. Rule as the data show it: active = GI50 up to about 1.1 µM and inactive = higher. *1 amine or outer side, *2 acyl side, *3 side chain or, on linkers, in order; H or OH if unused. Where a SMILES comes first, the peptide text is derived from it. Bridges are numbered along the chain shown (N, C = ends). Roman numbers before positions name the chains, in order. [ ]: non-standard residue; d: D form. Actinocin(1to9) = Cc1c2oc3c(C)ccc(C(=O)[*:2])c3nc-2c(C(=O)[*:1])c(N)c1=O; NMeV = CN[CH](C(=O)O)C(C)C; Sar = CNCC(=O)O
# valid calls are Yes = active, No = inactive; nothing else

Past entries and their recorded results:
Compound | Assigned label
Cc1cn([C@H]2CN(O)C[C@@H](CO)O2)c(=O)[nH]c1=O | No
CCOC(=O)c1cc(C(O)P2(=O)N(CC(C)(C)C)[C@@H]3CCCC[C@H]3N2CC(C)(C)C)cn1C(=O)OC(C)(C)C (some centres not stated) | No
O=C(O)C12C3C4(C(=O)O)C1C1(C(=O)O)C2C3(C(=O)O)C41 (configuration not stated) | No
COc1cc2oc(=O)cc(C)c2cc1[N+](=O)[O-] | No
CCC(C)C1NC(=O)C(NC(=O)c2c3nc4c(C(=O)NC5C(=O)NC(C(C)C)C(=O)N6CCCC6C(=O)N(C)CC(=O)N(C)C(C(C)C)C(=O)OC5C)ccc(C)c4oc-3c(C)c(=O)c2N)C(C)OC(=O)C(C(C)C)N(C)C(=O)CN(C)C(=O)C2CCCN2C1=O (configuration not stated) (I: TIP[Sar][NMeV] / II: TVP[Sar][NMeV]; ester I:1-I:C, II:1-II:C; linker I:N-II:N via Actinocin(1to9); configuration not given here) | Yes

-- ask Hi, do you know how CC1(c2nc3ccccc3[nH]2)CCC(C(=O)O)C(C)(C)O1 (configuration not stated) came out in this test?
-- reply No

-- ask Would you mind telling me which call this test gave `CC1=CC(=O)c2c(O)cccc2C1=O` ?
-- reply No

---

# System: TK-10
# Experiment notes: NCI tumour cell line growth inhibition, 48 h
Active and inactive are the calls of the source. Cut-off read from the data, not from the text of the source: active = GI50 up to about 1.1 µM and inactive = higher.
Please reply with one of these outcomes: active, inactive

Sample answers from the record:
Molecule | Assigned label
CN1CCOC(c2ccc(Cl)cc2)O1 (configuration not stated) | inactive
COc1ccc(C(=O)NCCN(C)C)c2nc3ccccc3nc12 | inactive
Cc1cc(S(=O)(=O)Nc2nnc3ccccn23)c(S)cc1Cl | inactive
O=C(O)c1ccccc1CC(Cc1ccc2c(c1)CCC2)C(=O)O (configuration not stated) | inactive

-- ask For `COC(=O)c1cc(C)ccc1/C=C1\Cc2cc(C)c(C)cc2C1=O` , which call appears in the assay record?
-- reply inactive

-- ask Hi, sorry to bother you, what did the test record for O=C1OC(C2Cc3ccc4ccccc4c3C2=O)c2ccccc21 (configuration not stated) ?
-- reply inactive

-- ask Please state the recorded outcome for this molecule: `O=C(O)CN1CCSc2ccccc2CN(CC(=O)O)CCSc2ccccc2C1`
-- reply inactive

-- ask For `Cc1ccc(Nc2n[nH]c(=S)s2)cc1C` , which call appears in the assay record?
-- reply inactive

-- ask Name the outcome recorded for `CCCCCOC(=O)c1cc2cc(CCl)ccc2oc1=O` in the assay.
-- reply active

-- ask Per the assay record, what outcome was assigned to [N-]=[N+]=NC(CBr)c1cn([C@H]2C[C@H](O)[C@@H](CO)O2)c(=O)[nH]c1=O (some centres not stated) ?
-- reply inactive

-- ask Dear all, I need the recorded test outcome for CC(N)Cc1ccc(C(=O)Cl)cc1 (configuration not stated) , thank you.
-- reply inactive

-- ask # lookup: test call for COC(=O)C1=C(O)c2cc(OC)c(OC)c(OC)c2[C@H](c2cc(OC)c(OC)c(OC)c2)C1C(=O)OC (some centres not stated)
-- reply inactive

---

Reported GI50 values follow for various compounds
# Test system: NCI-H460
# Experiment notes: NCI tumour cell line growth inhibition, 48 h
Active and inactive are the calls of the source. Cut-off read from the data, not from the text of the source: active = GI50 up to about 1.1 µM and inactive = higher.

Compound | GI50
CC(O)C1(CNc2cc(Cl)nc(N)n2)CCCCC1 (stereo unspecified) | > 100 µM (inactive)
CCOC(=O)c1c(N/C(S)=N/c2ccccc2)sc2c1CCOC2 | 40.2 µM (inactive)
Nc1cc(S(=O)(=O)O)cc2ccc(S(=O)(=O)O)cc12 | > 100 µM (inactive)
C=C1OC2OC(C)C(NC(=O)OCC(Cl)(Cl)Cl)C(OC(C)=O)C2O1 (stereo unspecified) | > 100 µM (inactive)
Cc1cc(N(CCC#N)CCC#N)ccc1/C=C/C(=O)Nc1ccccc1Cl | > 100 µM (inactive)
O=C(OCc1c(-c2ccccc2)nn(-c2ccccc2)c1COC(=O)Oc1ccccc1)Oc1ccccc1 | > 100 µM (inactive)
O=C(Nc1nn(C(=O)c2cccnc2)c(=O)s1)c1ccc(Cl)cc1 | > 100 µM (inactive)
CCOC(=O)c1ccc(Nc2nc3ccc(C(F)(F)F)cc3nc2-c2ccccc2)cc1 | > 100 µM (inactive)
C/C=C/C(=O)Oc1cccc2cccnc12 | 3.32 µM (inactive)
Nc1c(Cl)ncnc1N[C@@H]1C[C@H]1CO | > 100 µM (inactive)

Now consider the entry below.
Quick note, GI50 for `COC(=O)c1c(O)ccc2c1c1c(n2C)C(=O)c2ccccc2C1=O` landed at 8 µM (inactive)

---

# System: SN12C
# Experiment notes: NCI tumour cell line growth inhibition, 48 h
The source made the active and inactive calls. Rule as the data show it: active = GI50 up to about 1.1 µM and inactive = higher.
Assay endpoint: GI50

Example results:
Molecule | Endpoint value
c1cc(CSP234N5CCN2CCN3CCN4CC5)ccc1CSP123N4CCN1CCN2CCN3CC4 | > 100 µM (inactive)
COc1ccc2c(c1)c1c(C)c3cnccc3c(C)c1n2CCCN | 0.234 µM (active)

Lab note: measured GI50 of `CCc1ccccc1N1C(=O)C(=O)C(c2nc3ccccc3s2)C(=O)C1=O` was 63.4 µM (inactive)

Value of measured GI50 for the entry `CN(C)CCNC(=O)c1cccc2nc3cc(Cl)ccc3nc12` : 2.07 µM (inactive)

Given item `O=C1OC(c2ccccc2)=N/C1=C\c1ccc([N+](=O)[O-])cc1` , the value recorded as its GI50 is > 100 µM (inactive)

---

# Test system: NCI-H23
# Experiment notes: NCI tumour cell line growth inhibition, 48 h
Calls of active or inactive are those of the source. No stated cut-off is given here; in the data, active = GI50 up to about 1.1 µM and inactive = higher.
Let's look at some compounds and their measured GI50.

Worked examples follow.
Compound | Assay endpoint | Endpoint value
Cc1cc(C)c2c(O)cc(-c3ccc(F)cc3)nc2n1 | GI50 | 38.6 µM (inactive)
O=C1N/C(=N/N=C\c2ccccc2)N/C1=C/c1ccc(Cl)cc1 | GI50 | 19 µM (inactive)
O=c1c(C(c2ccc(Cl)cc2)c2c(O)c3ccccc3n(-c3ccccc3)c2=O)c(O)c2ccccc2n1-c1ccccc1 | GI50 | 11.1 µM (inactive)

# GI50 (compound: CCCC(O)C(NC(=O)CCl)C(=O)O (stereo unspecified) ) is > 100 µM (inactive)

Record summary for NC(=O)CCCC(NCc1c2ccccc2nc2ccccc12)C(=O)O (stereo unspecified) : reported GI50 = 53.1 µM (inactive)

Lab note: measured GI50 of `CC(=O)Nc1cccc(/N=N/N(C)C)c1` was > 100 µM (inactive)

Measured GI50, `Nc1c(-c2nc3ccccc3[nH]2)sc(=S)n1-c1ccc(Cl)cc1` : 36.6 µM (inactive)

Value of GI50 reported for the compound CCCCCCCCCCCCNC(=O)CCC(NC(=O)c1ccc(N(C)Cc2cnc3nc(N)nc(N)c3n2)cc1)C(=O)NCCCCCCCCCCCC (stereo unspecified) is 53.3 µM (inactive)

For reference, reported GI50 for `CCn1c(SCc2nnc(Nc3ccccc3)s2)nc2ccccc2c1=O` stands at 4.7 µM (inactive)

Sure, the documented GI50 for CN1CCOC(c2ccc(Cl)cc2)O1 (stereo unspecified) is > 100 µM (inactive)

For `COc1cc2c(cc1OCCCCN1C(=O)c3cccc4cccc(c34)C1=O)N=C[C@@H]1CCCN1C2=O` the compound record lists GI50 as 3.74 µM (inactive)
